Tested on: Escherichia coli TOP10
test: shrunken log2 fold change of peptide-encoding DNA abundance (4.5 h post-induction vs induction); higher = less antimicrobial activity (less host growth inhibition)
conditionContext: time post-induction: 4.5 h; library: site-saturation at positions 5, 18, 19, 20
# shrunken log2 fold change per entry
Write the number on its own, no unit after it.

Worked cases, shrunken log2 fold change given:
RRIRIRPPRLPRPRPRPFKLPRP
-0.597
RRIRQRPPRLPRPRPRPPAQPRP
0.0181
RRIRDRPPRLPRPRPRPMMKPRP
0.157
RRIRERPPRLPRPRPRPLYAPRP
-0.101
RRIRFRPPRLPRPRPRPEMSPRP
0.000731
RRIRERPPRLPRPRPRPGNSPRP
-0.115
RRIRRRPPRLPRPRPRPQYRPRP
-0.0575
RRIRQRPPRLPRPRPRPTIRPRP
-0.219
RRIRHRPPRLPRPRPRPPETPRP
0.0733
RRIRSRPPRLPRPRPRPMPIPRP
-0.109

Then there is this sequence:
Q) # get_value(readout= shrunken log2 fold change, system= Escherichia coli TOP10) for `RRIRRRPPRLPRPRPRPEHFPRP`;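 also: peptides expressed intracellularly from a pBAD plasmid library in pooled LB shake-flask culture, induced with 0.3% L-arabinose, DNA abundance read by NGS, three biological replicates, DESeq2 with apeglm shrinkage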
A) 0.301
